SYSTEM_TESTED: Myosin-7 (Bos taurus)
Construct: gene MYH7
Sequence (Q9BE39 whole entry, looked up): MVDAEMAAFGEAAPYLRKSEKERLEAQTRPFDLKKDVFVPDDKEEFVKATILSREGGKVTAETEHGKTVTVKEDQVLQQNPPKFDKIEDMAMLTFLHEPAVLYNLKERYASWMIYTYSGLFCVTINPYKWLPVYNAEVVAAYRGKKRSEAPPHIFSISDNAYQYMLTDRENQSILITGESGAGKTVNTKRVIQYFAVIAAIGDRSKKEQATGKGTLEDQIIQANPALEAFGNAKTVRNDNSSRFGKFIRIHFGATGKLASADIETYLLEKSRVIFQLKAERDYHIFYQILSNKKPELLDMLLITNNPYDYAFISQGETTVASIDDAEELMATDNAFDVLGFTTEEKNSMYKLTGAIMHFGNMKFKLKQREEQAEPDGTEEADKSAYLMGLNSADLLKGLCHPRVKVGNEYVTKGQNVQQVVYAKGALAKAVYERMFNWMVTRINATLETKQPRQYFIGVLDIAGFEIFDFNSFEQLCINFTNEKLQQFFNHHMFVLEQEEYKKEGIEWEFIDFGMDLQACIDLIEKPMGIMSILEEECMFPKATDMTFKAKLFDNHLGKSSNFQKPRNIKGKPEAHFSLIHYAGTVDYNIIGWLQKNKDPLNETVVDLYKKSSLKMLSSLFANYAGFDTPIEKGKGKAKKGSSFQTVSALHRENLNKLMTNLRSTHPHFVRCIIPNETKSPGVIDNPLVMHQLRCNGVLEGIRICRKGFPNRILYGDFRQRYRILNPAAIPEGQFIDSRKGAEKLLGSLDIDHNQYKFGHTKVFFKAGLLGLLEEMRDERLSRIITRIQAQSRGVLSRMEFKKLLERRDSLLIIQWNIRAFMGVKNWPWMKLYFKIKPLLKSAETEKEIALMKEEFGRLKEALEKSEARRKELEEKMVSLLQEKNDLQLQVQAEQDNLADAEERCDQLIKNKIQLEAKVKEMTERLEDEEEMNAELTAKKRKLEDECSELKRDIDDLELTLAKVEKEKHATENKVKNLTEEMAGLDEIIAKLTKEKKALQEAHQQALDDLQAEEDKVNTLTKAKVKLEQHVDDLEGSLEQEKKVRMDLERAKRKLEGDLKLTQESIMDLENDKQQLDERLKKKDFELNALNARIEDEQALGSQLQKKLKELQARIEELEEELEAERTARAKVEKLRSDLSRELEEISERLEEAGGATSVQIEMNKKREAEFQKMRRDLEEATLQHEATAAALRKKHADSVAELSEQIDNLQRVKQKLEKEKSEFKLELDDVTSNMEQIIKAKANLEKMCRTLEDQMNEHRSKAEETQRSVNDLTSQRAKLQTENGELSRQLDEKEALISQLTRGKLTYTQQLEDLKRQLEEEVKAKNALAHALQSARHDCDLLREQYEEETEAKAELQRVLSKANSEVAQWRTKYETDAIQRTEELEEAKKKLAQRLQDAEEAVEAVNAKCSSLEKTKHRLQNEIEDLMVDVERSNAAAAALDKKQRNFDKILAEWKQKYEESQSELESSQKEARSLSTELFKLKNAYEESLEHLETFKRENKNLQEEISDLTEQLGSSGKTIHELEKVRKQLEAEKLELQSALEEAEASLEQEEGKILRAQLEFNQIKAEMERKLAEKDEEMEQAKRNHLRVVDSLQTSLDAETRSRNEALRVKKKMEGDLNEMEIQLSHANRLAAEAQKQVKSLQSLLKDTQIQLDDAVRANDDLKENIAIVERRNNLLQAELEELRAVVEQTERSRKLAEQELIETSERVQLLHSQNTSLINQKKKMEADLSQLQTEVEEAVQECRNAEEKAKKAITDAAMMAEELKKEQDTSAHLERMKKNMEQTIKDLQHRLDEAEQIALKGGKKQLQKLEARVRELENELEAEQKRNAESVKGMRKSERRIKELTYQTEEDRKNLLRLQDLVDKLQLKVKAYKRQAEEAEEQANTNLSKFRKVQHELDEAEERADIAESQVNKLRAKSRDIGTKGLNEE
PROCEDURE_DETAILS: Myofibril Assays
Description: To evaluate the effect of compounds on the ATPase activity of full-length cardiac myosin in the context of the native sarcomere, skinned myofibril assays were performed. […] Small molecule agents were assessed for their ability to inhibit the steady-state ATPase activity of bovine cardiac myofibrils using pyruvate kinase and lactate dehydrogenase (PK/LDH)-coupled enzyme system. This assay regenerates myosin-produced ADP into ATP by oxidizing NADH, producing an absorbance change at 340 nm.
pIC50: −log10 of the molar value.

COMPOUND	pIC50
Cc1cc(C(=O)NC2CCc3cc(-c4noc(C(F)F)n4)ccc32)on1 (configuration not stated)	5.24
CCc1nc(-c2ccc3c(c2)CC[C@H]3NC(=O)c2cnn(C3CN(C(=O)OC(C)(C)C)C3)c2)no1	5.15
COCc1nc(-c2ccc3c(c2)CC[C@H]3NC(=O)c2cnc(C)n2C)no1	5.24
Cc1cnoc1C(=O)N[C@@H]1CCc2cc(-c3noc(C(F)F)n3)ccc21	6.05
CCc1nc(-c2ccc3c(c2)CC[C@H]3NC(=O)c2cnn(C3CN(C(=O)OC)C3)c2)no1	4.41
Cc1cnoc1C(=O)NC1CCc2cc(-c3noc(C(F)F)n3)ccc21 (configuration not stated)	5.66
Cn1cc(C(=O)N[C@@H]2CCc3cc(-c4noc(C5CCC5)n4)ccc32)cn1	5.49
